Assay: TD-6450 phase I clinical study (SAD/MAD): pharmacokinetics
Format: in vivo, human
Conditions: female, human, plasma, oral, 0.5 mg, Female subjects, SAD arm NCT02022306, Dose 0.50, 2 Hours; read-out: Concentration
Experimental: Primary and secondary outcomes were pre-defined as follows: Safety and tolerability as a primary outcome, pharmacokinetics as a secondary outcome. Safety and tolerability were evaluated using standard measures, including adverse event (AE) monitoring, clinical laboratory tests (hematology, serum chemistry, coagulation, and urinalysis), vital signs, physical examinations, and 12-lead electrocardiograms (ECGs). […] This study was conducted in two parts, Part A (SAD) and Part B (MAD). […]
QUANTITY KIND: concentration at 2 h (ng/mL)
Please respond with the number in ng/mL and leave the unit unwritten.

Any idea what concentration at 2 h was measured for CNC(=O)N1C[C@@H](C)N(c2ccc(C(=O)Nc3ccc(-c4ccc(-c5c[nH]c([C@@H]6CCCN6C(=O)[C@@H](NC(=O)OC)C(C)C)n5)cc4)c(OC(F)(F)F)c3)cn2)C[C@@H]1C [TD-6450] ?
0
